Values were extracted from PubChem BioAssay AID504436.

- MEASURED_ON: Apelin receptor (Homo sapiens) (UniProt P35414)
- Sequence (P35414 whole entry, looked up): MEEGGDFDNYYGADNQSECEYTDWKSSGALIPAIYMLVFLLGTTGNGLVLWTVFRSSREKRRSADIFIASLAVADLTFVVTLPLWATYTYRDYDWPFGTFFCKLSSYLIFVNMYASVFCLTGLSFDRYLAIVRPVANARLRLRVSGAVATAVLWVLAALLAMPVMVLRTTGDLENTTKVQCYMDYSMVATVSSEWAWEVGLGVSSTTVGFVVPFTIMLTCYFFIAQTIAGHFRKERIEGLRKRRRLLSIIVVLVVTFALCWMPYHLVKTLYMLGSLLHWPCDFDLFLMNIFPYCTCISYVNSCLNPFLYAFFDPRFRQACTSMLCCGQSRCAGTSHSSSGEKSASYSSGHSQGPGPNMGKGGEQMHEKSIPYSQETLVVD
- ASSAY: blockers of apelin-13-driven APJ signaling – cell-based, CHO-K1 AGTRL-1, PathHunter luminescence, set 5, SAR follow-up (AID 504436)
- CONDITION_SUMMARY: CHO-K1 APJ beta-arrestin PathHunter, antagonist
Calls of active or inactive are those of the source.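 Rule for the calls: active = mean IC50 below 20 µM in the confirmatory beta-arrestin antagonist test; inactive = the rest.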
Respond with a class label; see active, inactive

Outcome logged for `O=C(Oc1coc(CSc2ccc(OC(F)(F)F)cc2)cc1=O)c1ccc(Cl)c([N+](=O)[O-])c1` in this assay:
inactive

Status in this test for `O=C(Oc1coc(CN2CCOCC2)cc1=O)c1ccccc1` ?
inactive

Assay outcome for `Cc1ccnc(SCc2cc(=O)c(NC(=O)c3ccc([N+](=O)[O-])cc3)co2)n1` : what was it?
inactive

Just curious, what result did `O=C(Oc1coc(CSc2ccc(Cl)cc2)cc1=O)c1ccc(Cl)c([N+](=O)[O-])c1` get here?
active

Outcome logged for `Cc1ccc(SCc2cc(=O)c(OC(=O)c3ccc(Cl)c([N+](=O)[O-])c3)co2)cc1` in this assay:
active
